All figures here come from PubChem BioAssay AID1159580.

# assay_method_text: chemical genetic growth profiling, strain panel (AID 1159580);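 also: tested at 20 µM; growth read once vehicle control cultures reached saturation at 30 °C; 1 = growth at the plate median or of vehicle wells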
# measurement_parameters: S. cerevisiae deletion strains, growth OD, locus YLR039C, strain RIC1, stronger effect = lower value
Among all 5,500 compounds or so, about 2,000 (36%) were called active. Not shown: some 18% with an inconclusive outcome. The list shows a part of the results.
reported_property: normalized growth
The reply should be a number, written without any unit.

Here is how some compounds turned out for normalized growth.
compound	normalized growth
CCCCC(=O)O[C@]1(C(=O)CO)[C@@H](C)CC2C3CCC4=CC(=O)C=C[C@]4(C)[C@@]3(F)C(O)C[C@@]21C (some centres not stated)	1.07
Clc1ccc2ocnc2c1	1.02
C/C=C/CC(C)C(O)C1C(=O)NC(CC)C(=O)N(C)CC(=O)N(C)C(CC(C)C)C(=O)NC(C(C)C)C(=O)N(C)C(CC(C)C)C(=O)NC(C)C(=O)NC(C)C(=O)N(C)C(CC(C)C)C(=O)N(C)C(CC(C)C)C(=O)N(C)C(C(C)C)C(=O)N1C (configuration not stated)	0.621

Consider the compound shown here: Cn1c(SCC(=O)N2CCOCC2)nnc1-c1ccc2ncccc2c1 What is its recorded normalized growth?
0.971

State the recorded normalized growth for this entry: COC(=O)[C@H]1[C@H]2C[C@H]3c4[nH]c5cc(OC)ccc5c4CCN3C[C@H]2C[C@@H](OC(=O)c2cc(OC)c(OC)c(OC)c2)[C@@H]1OC
0.971

Fill blank: measured normalized growth of the compound CCC(=O)O[C@]1(C(=O)CCl)[C@@H](C)CC2C3CCC4=CC(=O)C=C[C@]4(C)[C@@]3(F)[C@@H](O)C[C@@]21C (some centres not stated) is ____.
0.959

Which normalized growth value belongs to CCC(=O)OCC(=O)[C@@]1(OC(=O)CC)[C@@H](C)CC2C3CCC4=CC(=O)C=C[C@]4(C)C3(F)[C@@H](O)C[C@@]21C (some centres not stated) ?
0.85

====

# assay_method_text: chemical genetic growth profiling, strain panel (AID 1159580)
# measurement_parameters: S. cerevisiae deletion strains, growth OD, locus YDL101C, strain DUN1, stronger effect = lower value
Screen size: about 5,500 compounds; about 2,000 (36%) were called active. Not shown: some 18% with an inconclusive outcome. This is one part of the list.
Reported normalized growth by item:
# answer = number (no unit)

Example entries and their recorded answers appear below.
compound	normalized growth
NC[C@@H]1O[C@H](O[C@@H]2[C@@H](CO)OC(O[C@@H]3[C@@H](O)[C@H](N)C[C@H](N)[C@H]3O[C@H]3O[C@H](CO)[C@@H](O)[C@H](O)[C@H]3N)[C@@H]2O)[C@H](N)[C@@H](O)[C@@H]1O (stereo partly drawn)	0.98
Cc1ccc(S(=O)(=O)N2CCC(N)=N2)cc1	1.05
CC(C)(C)OC(=O)NCc1n[nH]c(=S)n1-c1ccccc1	1.02
Clc1ccc2ocnc2c1	1
Cc1onc(-c2ccccc2)c1C(=O)On1c(-c2ccccc2)nc2ccccc2c1=O	0.944

# evaluate next
// normalized growth lookup, key: COC1CC(O[C@H]2CC[C@]3(C=O)C4CC[C@]5(C)C(C6=CC(=O)OC6)CC[C@]5(O)C4CC[C@]3(O)C2)OC(C)C1O (stereo partly drawn)
1.02

====

Items are presented alongside their recorded normalized growth.
# assay_method_text: chemical genetic growth profiling, strain panel (AID 1159580)
# measurement_parameters: S. cerevisiae deletion strains, growth OD, locus YGL227W, strain vid30, stronger effect = lower value
The whole screen tested about 5,500 compounds, of which about 2,000 (36%) were called active. About 18% were inconclusive and are not listed. The list shows a part of the results.
In your answer, state the number alone without any accompanying words.

compound	test_result
COC(=O)NC(=S)Nc1ccccc1NC(=S)NC(=O)OC	0.977
Cc1ccc(-c2nc3ccc(C)cn3c2CC(=O)N(C)C)cc1	1.01
CC(=O)Oc1ccccc1C(=O)Oc1ccccc1C(=O)O	0.998
O=C(Oc1ccccc1C(=O)O)c1ccccc1O	0.98

Item COC(=O)CC1C(C)(C)C(OC(C)=O)[C@@H]2[C@@H](OC(C)=O)[C@]34O[C@@]2(O)[C@]1(C)C3CC[C@]1(C)C4=CC(=O)O[C@H]1c1ccoc1 (some centres undefined) has what recorded normalized growth?
1

Can you share its normalized growth? I mean this compound: Nc1nc(/C(=C/CC(=O)O)C(=O)N[C@@H]2C(=O)N3C(C(=O)O)=CCS[C@H]23)cs1
1.01

Query: normalized growth; subject: CC1(C)S[C@@H]2[C@H](NC(=O)C(C(=O)O)c3ccccc3)C(=O)N2[C@H]1C(=O)O (some centres undefined)
0.985

Fill in: normalized growth of CC(C)C[C@@H](NC(=O)OCC1c2ccccc2-c2ccccc21)C(=O)O is ___
0.996

Given the compound C[C@@H]1CCC2[C@](C)(CO)[C@@H](O)CC[C@]2(C)[C@@]12CC[C@@](CO)(CCO)O2 (some centres undefined) , what is its reported normalized growth?
0.978

====

# assay_method_text: chemical genetic growth profiling, strain panel (AID 1159580);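 also: tested at 20 µM; growth read once vehicle control cultures reached saturation at 30 °C; 1 = growth at the plate median or of vehicle wells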
# measurement_parameters: S. cerevisiae deletion strains, growth OD, locus YBR021W, strain FUR4, stronger effect = lower value
Among all 5,500 compounds or so, about 2,000 (36%) were called active. About 18% were inconclusive and are not listed. Some of the results follow.
Labelling: normalized growth reported below 1 becomes Fulfilled; at or above becomes Not fulfilled.

Field: example entries. Status: answers known.
compound	group
C[C@H]1[C@H](C)CC[C@]2(C(=O)O)CC[C@]3(C)C(=CCC4[C@@]5(C)C[C@@H](O)[C@H](O)[C@@](C)(CO)C5[C@H](O)C[C@]43C)[C@H]12 (stereo partly specified)	Fulfilled
CC1CCCC(C)N1NC(=O)c1ccc(Cl)c(S(N)(=O)=O)c1 (stereo unspecified)	Not fulfilled
O=C(/C=C(\O)c1ccccc1)c1ccccc1O	Fulfilled
C[C@@H](CO)NC(=O)C1C=C2c3cccc4[nH]cc(c34)C[C@H]2N(C)C1 (stereo partly specified)	Fulfilled

Then there is this compound:
Would you kindly verify if normalized growth of NC(=O)c1ccccc1O is strictly less than 1?
Not fulfilled

====

# assay_method_text: chemical genetic growth profiling, strain panel (AID 1159580);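 also: tested at 20 µM; growth read once vehicle control cultures reached saturation at 30 °C; 1 = growth at the plate median or of vehicle wells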
# measurement_parameters: S. cerevisiae deletion strains, growth OD, locus YER002W, strain NOP16, stronger effect = lower value
Hit rate of the full screen: of about 5,500 compounds, about 2,000 (36%) were called active. Another 18% or so got no clear call; they are omitted. Some of the results follow.
reported_property: normalized growth
// response body must contain only the number

Example entries and their recorded answers appear below.
In [3]: df
Out[3]:
                                   molecule  test_result
0  COc1cc(C(=O)OCCCN2CCCN(CCCOC(=O)c3cc(OC)c(OC)c(OC)c3)CC2)cc(OC)c1OC         1.03
1  CCC1(O)C(=O)OCc2c1cc1n(c2=O)Cc2cc3ccccc3nc2-1 (stereo not given)        0.971

Form field: reported normalized growth of N#C/C(=C\c1c[nH]c2ccccc12)C(=O)c1ccc(O)c(O)c1
1.01

Field request: normalized growth | item: CN(C)C(=O)C(CCN1CCC(O)(c2ccc(Cl)cc2)CC1)(c1ccccc1)c1ccccc1
1.01

Item under review: O=C(CCCN1CCC2(CC1)C(=O)NCN2c1ccccc1)c1ccc(F)cc1 . Reported normalized growth?
0.993

====

Each entry below carries its reported normalized growth.
# assay_method_text: chemical genetic growth profiling, strain panel (AID 1159580);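 also: tested at 20 µM; growth read once vehicle control cultures reached saturation at 30 °C; 1 = growth at the plate median or of vehicle wells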
# measurement_parameters: S. cerevisiae deletion strains, growth OD, locus YMR078C, strain ctf18, stronger effect = lower value
Out of some 5,500 compounds screened, about 2,000 (36%) were called active. About 18% were inconclusive and are not listed. The list shows a part of the results.

Solved entries:
molecule	normalized growth
NC[C@H]1O[C@H](O[C@H]2[C@H](O)[C@@H](O[C@H]3O[C@H](CO)[C@@H](O)[C@H](N)[C@H]3O)[C@H](N)C[C@@H]2N)[C@H](N)[C@@H](O)[C@@H]1O	1.01 (inactive)
CC(=O)N1CCN(c2ccc(OCC3CO[C@](Cn4ccnc4)(c4ccc(Cl)cc4Cl)O3)cc2)CC1 (stereo partly drawn)	0.112 (active)
CC(=O)O[C@@H]1CC2C(C)(CC[C@H](O)C2(C)C)C2CC[C@]3(C)C(=CC(=O)O[C@H]3c3ccoc3)C21C (stereo partly drawn)	0.996 (inactive)
C[C@@H]1CC[C@@]23CCC4(C)[C@@](C=CC5[C@@]6(C)CC[C@H](O)C(C)(C)C6CC[C@]54C)(OC2=O)C3[C@H]1C (stereo partly drawn)	0.991 (inactive)
Oc1ccc2c3c1OC1[C@@H](O)CC[C@@]4(O)[C@@H](C2)N(CC2CCC2)CC[C@]314 (stereo partly drawn)	1.02 (inactive)

What normalized growth value was documented for this molecule, CC1(C)C(=O)CC[C@@]2(C)C1C[C@@H](O)[C@@]1(C)C3=CC(=O)O[C@@H](c4ccoc4)[C@]3(C)CCC21 (stereo partly drawn) ?
1.01 (inactive)

Give its normalized growth value. Item: O=C(O)CN(CCN(CC(=O)O)CC(=O)O)CC(=O)O
0.99 (inactive)

// query normalized growth value for entry N#Cc1c(Cl)cccc1Cl
1.02 (inactive)
